Tested on: K562
PROTOCOL_NOTES: Cytotoxicity against human K562 cells after 72 hrs by flow cytometry
Format: cell-based
APPLIED_CONDITIONS: K562, 72 h
OBSERVATION_TYPE: pIC50
When answering, recall that pIC50 equals minus log10 of the concentration in mol/L, and write that number alone.

Request - read-out pIC50 | tested on K562 | compound "Fc1ccccc1Nc1nc(C(Cl)(Cl)Cl)nc2ccccc12" 4.52

Record lookup: for K562, what pIC50 belongs to "COc1cccc2c1C(=O)c1c(O)c3c(c(O)c1C2=O)C[C@@](O)(C(=O)CO)C[C@@H]3O[C@H]1C[C@H](N)[C@H](O)[C@H](C)O1" ? 7.22

Please provide the recorded pIC50 for "C[C@H]1c2cccc(O)c2C(=O)C2=C(O)[C@]3(O)C(=O)C(C(N)=O)=C(O)[C@@H](N(C)C)[C@@H]3[C@@H](O)[C@@H]21.O" , tested on K562. 4.82

Form: Entry = "Cc1nc(Nc2cccc(C(F)(F)F)c2)c2ccccc2n1" | System = K562 | pIC50 = ____ 5.00

# query: pIC50 | item CCN(CC)CCCC(C)Nc1ccnc2cc(Cl)ccc12 (stereo unspecified) | system: K562 4.49

###

Measured selectivity ratio accompanies every entry in the list below.
PROTOCOL_NOTES: Selectivity index, ratio of IC50 for human K562 cells to IC50 for chloroquine, pyrimethamine and proguanil-resistant Plasmodium falciparum W2
Type: toxicity, cell-based
APPLIED_CONDITIONS: K562 cells (cytotoxicity) versus Plasmodium falciparum W2, read-out: Ratio IC50
Give the figure only, with no unit attached.

Please give the measured selectivity ratio for this compound: "Clc1ccc(Nc2nc(C(Cl)(Cl)Cl)nc3ccccc23)cc1Cl" 1.8

Quick one: selectivity ratio for "Clc1ccc(Nc2nc(C(Cl)(Cl)Cl)nc3ccccc23)cc1" ? 4.7

# get_value(readout='selectivity ratio', item= C[C@H]1c2cccc(O)c2C(=O)C2=C(O)[C@]3(O)C(=O)C(C(N)=O)=C(O)[C@@H](N(C)C)[C@@H]3[C@@H](O)[C@@H]21.O [DOXYCYCLINE] ) 2.3

What value of selectivity ratio has been reported for the following compound? "ClC(Cl)(Cl)c1nc(Nc2ccc(Br)cc2)c2ccccc2n1" 10

Dear colleague, I am looking for the recorded selectivity ratio of the following compound: "COc1cccc(Nc2nc(C(Cl)(Cl)Cl)nc3ccccc23)c1" 2.3

###

Tested on: K562
PROTOCOL_NOTES: Cytotoxicity against human K562 cells after 72 hrs by flow cytometry
Assay type: cell-based
APPLIED_CONDITIONS: K562, 72 h
Listed molecules paired with reported IC50
Field format: number, assumed µM, no unit text.

Previously resolved entries follow.
{"MOLECULE": "Cc1ccccc1Nc1nc(C(Cl)(Cl)Cl)nc2ccccc12", "IC50, µM": 11}
{"MOLECULE": "CN1CCN(c2nc(C(Cl)(Cl)Cl)nc3ccccc23)CC1", "IC50, µM": 65}
{"MOLECULE": "Cc1ccc(Nc2nc(C(Cl)(Cl)Cl)nc3ccccc23)cc1", "IC50, µM": 6}

Now, please, on to the next molecule.
Which IC50 reading was recorded for the molecule CCc1nc(N)nc(N)c1-c1ccc(Cl)cc1 [PYRIMETHAMINE] ? 5

###

System: K562
PROTOCOL_NOTES: Cytotoxicity against human K562 cells after 72 hrs by flow cytometry
Format: cell-based
APPLIED_CONDITIONS: K562, 72 h
OBSERVATION_TYPE: pIC50
// pIC50: -log10(molar conc.)

# pIC50 lookup, item "Cc1nc(Nc2cccc(Cl)c2)c2ccccc2n1" 4.57

Returns the measured pIC50 for the input compound. Input: "C[C@@H]1[C@H](O)[C@@H](C)/C=C/C=C/C=C/C=C/C=C/C=C/C=C/[C@H](O[C@@H]2O[C@H](C)[C@@H](O)[C@H](N)[C@@H]2O)C[C@@H]2O[C@](O)(C[C@@H](O)C[C@@H](O)[C@H](O)CC[C@@H](O)C[C@@H](O)CC(=O)O[C@H]1C)C[C@H](O)[C@H]2C(=O)O" 4.77

Look up pIC50 for this compound: "O=[N+]([O-])c1ccc(Nc2nc(C(Cl)(Cl)Cl)nc3ccccc23)cc1" 5.30

###

PROTOCOL_NOTES: Selectivity index, ratio of IC50 for human K562 cells to IC50 for chloroquine, pyrimethamine and proguanil-resistant Plasmodium falciparum W2
Format: toxicity, cell-based
APPLIED_CONDITIONS: K562 cells (cytotoxicity) versus Plasmodium falciparum W2, read-out: Ratio IC50
Please respond with y when measured selectivity ratio is strictly beneath 2, and with n in all other cases.

{"MOLECULE_SMILES": "CN1CCN(c2nc(C(Cl)(Cl)Cl)nc3ccccc23)CC1", "GROUP": "n"}
{"MOLECULE_SMILES": "O=[N+]([O-])c1ccc(Nc2nc(C(Cl)(Cl)Cl)nc3ccccc23)cc1", "GROUP": "y"}
{"MOLECULE_SMILES": "Fc1ccccc1Nc1nc(C(Cl)(Cl)Cl)nc2ccccc12", "GROUP": "n"}

Continue with the next compound.
Could you please tell me whether selectivity ratio recorded for "Clc1cccc(Cl)c1Nc1nc(C(Cl)(Cl)Cl)nc2ccccc12" is less than 2? y

###

System: K562
PROTOCOL_NOTES: Cytotoxicity against human K562 cells after 72 hrs by flow cytometry
Assay type: cell-based
APPLIED_CONDITIONS: K562, 72 h
OBSERVATION_TYPE: IC50 (µM)
The figure you give is taken to be in µM; do not add the unit.

Solved entries (count: 4):
{"MOLECULE_SMILES": "FC(F)(F)c1ccc(Nc2nc(C(Cl)(Cl)Cl)nc3ccccc23)cc1", "UNIT_INFO": "µM", "IC50": 4}
{"MOLECULE_SMILES": "Cc1cccc(Nc2nc(C(Cl)(Cl)Cl)nc3ccccc23)c1", "UNIT_INFO": "µM", "IC50": 9}
{"MOLECULE_SMILES": "Clc1ccc(Nc2nc(C(Cl)(Cl)Cl)nc3ccccc23)cc1", "UNIT_INFO": "µM", "IC50": 14}
{"MOLECULE_SMILES": "Clc1cc(Cl)cc(Nc2nc(C(Cl)(Cl)Cl)nc3ccccc23)c1", "UNIT_INFO": "µM", "IC50": 9}

Below: the item to evaluate.
Fill in the blank: the reported IC50 of "COc1ccccc1Nc1nc(C(Cl)(Cl)Cl)nc2ccccc12" is ____. 60

###

Tested on: K562
PROTOCOL_NOTES: Cytotoxicity against human K562 cells after 72 hrs by flow cytometry
Format: cell-based
APPLIED_CONDITIONS: K562, 72 h
Each item that follows carries a reported pIC50.
Note: pIC50 values are expressed as the negative base-10 logarithm of concentration in M.

Need pIC50, item "ClC(Cl)(Cl)c1nc(Nc2cccc3ccccc23)c2ccccc2n1" 5.30

###

Let's look at some compounds and their measured selectivity ratio.
PROTOCOL_NOTES: Selectivity index, ratio of IC50 for human K562 cells to IC50 for chloroquine, pyrimethamine and proguanil-resistant Plasmodium falciparum W2
Assay type: toxicity, cell-based
APPLIED_CONDITIONS: K562 cells (cytotoxicity) versus Plasmodium falciparum W2, read-out: Ratio IC50
Just the number, please.

{"MOLECULE_SMILES": "Cc1ccccc1Nc1nc(C(Cl)(Cl)Cl)nc2ccccc12", "MEASURED_NUMBER": 1.6}
{"MOLECULE_SMILES": "FC(F)(F)Oc1ccc(Nc2nc(C(Cl)(Cl)Cl)nc3ccccc23)cc1", "MEASURED_NUMBER": 2.1}
{"MOLECULE_SMILES": "FC(F)(F)c1cc(Nc2nc(C(Cl)(Cl)Cl)nc3ccccc23)cc(C(F)(F)F)c1", "MEASURED_NUMBER": 3.3}
{"MOLECULE_SMILES": "Fc1cccc(Nc2nc(C(Cl)(Cl)Cl)nc3ccccc23)c1", "MEASURED_NUMBER": 3.8}
{"MOLECULE_SMILES": "COc1ccccc1Nc1nc(C(Cl)(Cl)Cl)nc2ccccc12", "MEASURED_NUMBER": 10}

State the recorded selectivity ratio for this entry: "O=[N+]([O-])c1cccc(Nc2nc(C(Cl)(Cl)Cl)nc3ccccc23)c1" 1.7

If you can, please state the reported selectivity ratio value of "ClC(Cl)(Cl)c1nc(Nc2cccc3ccccc23)c2ccccc2n1" . 0.8

Requested read-out: selectivity ratio. Entry: "COc1ccc(Nc2nc(C(Cl)(Cl)Cl)nc3ccccc23)cc1" 1.3

Need selectivity ratio of "FC(F)(F)c1ccc(Nc2nc(C(Cl)(Cl)Cl)nc3ccccc23)cc1" , thanks. 2.5

###

Recorded pIC50 for the following compounds
Test system: K562
PROTOCOL_NOTES: Cytotoxicity against human K562 cells after 72 hrs by flow cytometry
Format: cell-based
APPLIED_CONDITIONS: K562, 72 h
# log scale: pIC50 equals minus log10 of the concentration in mol/L

Worked examples, 2 compounds total:
{"MOLECULE_SMILES": "Clc1ccc(Nc2nc(C(Cl)(Cl)Cl)nc3ccccc23)cc1Cl", "pIC50": 5.05}
{"MOLECULE_SMILES": "FC(F)(F)c1ccccc1Nc1nc(C(Cl)(Cl)Cl)nc2ccccc12", "pIC50": 4.52}

Please find the next compound below.
# get_value(readout='pIC50', item= "ClC(Cl)(Cl)c1nc(Nc2ccc(Br)cc2)c2ccccc2n1" ) 4.82
